STUDY SYSTEM: GABARAPL1 ATG8 (human)
ASSAY: fluorescence polarisation; displacement: unlabelled peptide titrated onto a complex of FITC-labelled peptide (10 nM) and protein domain (1-2x KD); 50 mM sodium phosphate buffer pH 7.4 (CASK: plus 100 mM NaCl); KD calculated from IC50; technical triplets
MEASUREMENT KIND: pKd
pKd field: float, defined as -log10 of concentration (mol/L).

Recorded pKd (binder DKDEWQSLDQNEDAFE [BUB1_(486-501) wild-type peptide] ): 5.26
